- measured-target: EGFR mutant Del19/T790M (Homo sapiens, UniProt P00533, DEL746-750/T790M)
- Construct: truncated human JAK3, EGFR mutants such as del E746-A750; purchased Carna Biosciences
- Sequence (P00533 with tags, fused parts or gaps DEL746-750/T790M limits assumed): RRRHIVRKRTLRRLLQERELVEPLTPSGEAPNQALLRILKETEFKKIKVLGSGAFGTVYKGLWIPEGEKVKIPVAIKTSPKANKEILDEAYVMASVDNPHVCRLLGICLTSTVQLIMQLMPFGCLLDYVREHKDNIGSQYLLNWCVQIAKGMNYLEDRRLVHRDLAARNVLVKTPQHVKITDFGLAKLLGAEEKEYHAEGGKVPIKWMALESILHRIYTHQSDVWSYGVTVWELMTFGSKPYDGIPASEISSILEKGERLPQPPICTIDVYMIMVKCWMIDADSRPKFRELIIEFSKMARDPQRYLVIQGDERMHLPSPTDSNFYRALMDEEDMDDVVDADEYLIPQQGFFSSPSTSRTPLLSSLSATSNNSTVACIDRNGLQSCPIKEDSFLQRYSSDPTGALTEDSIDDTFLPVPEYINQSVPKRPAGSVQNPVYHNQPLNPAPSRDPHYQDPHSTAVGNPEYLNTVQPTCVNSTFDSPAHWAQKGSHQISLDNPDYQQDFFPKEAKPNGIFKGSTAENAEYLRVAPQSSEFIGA
- test: Kinase inhibition assay, EGFR del E746-A750/T790M
- Format: biochemical
- condition-info: read-out: EGFR mutants Del19/T790M
pIC50: −log10 of the molar value.
metric: pIC50

input: What value of pIC50 has been recorded for this entry: C=CC(=O)Nc1cc(Nc2ncc(C)c(-n3cc(CN4CCC4)cn3)n2)c(OC)cc1N1CCOCC1
output: > 7.70

input: Then what about the molecule C=CC(=O)Nc1cc(Nc2nccc(-n3cc(CN4CCC4)c(-c4ccccc4)n3)n2)c(OC)cc1N1CCOCC1 ?
output: > 7.70

input: Continue with C=CC(=O)Nc1cc(Nc2ncc(F)c(-n3cc(C)c(CN4CCC4)c3)n2)c(OC)cc1N1CCOCC1
output: > 7.70

input: C=CC(=O)Nc1cc(Nc2ncc(C)c(-n3cc(CN4CCC4)c(C(C)(C)C)n3)n2)c(OC)cc1N1CCOCC1 ?
output: > 7.70

input: How about C=CC(=O)Nc1cc(Nc2nccc(-n3cc(CN(C)CC)c(C4CC4)n3)n2)c(OC)cc1N1CCN(C(C)=O)CC1 ?
output: > 7.70

input: Another molecule: C=CC(=O)Nc1cc(Nc2nccc(-n3cc(CN(C)C)c(-c4ccc(F)cc4)n3)n2)c(OC)cc1N1CCOCC1
output: > 7.70

input: Another molecule to check: C=CC(=O)Nc1cc(Nc2nccc(-n3cc(CN(C)CC)c(-c4ccccc4)n3)n2)c(OC)cc1N1CCOCC1
output: > 7.70

input: Entry to check: C=CC(=O)Nc1cc(Nc2nccc(-n3cc(CN(C)C)c(C(C)(C)C)n3)n2)c(OC)cc1N1CCOCC1
output: > 7.70

input: Queued: C=CC(=O)Nc1cc(Nc2ncc(C)c(-n3cc(CN4CC[C@H](O)C4)c(C)n3)n2)c(OC)cc1N1CCOCC1
output: > 7.70

input: Then this molecule: C=CC(=O)Nc1cc(Nc2ncc(C)c(-n3cc(CN(C)C)c(-c4ccccc4)n3)n2)c(OC)cc1N1CCOCC1
output: > 7.70

input: Ok, now C=CC(=O)Nc1cc(Nc2nccc(-n3cc(CN4CCC4)c(C4CC4)n3)n2)c(OC)cc1N1CCN(C(C)=O)CC1
output: > 7.70

input: Repeat for the following molecule: C=CC(=O)Nc1cc(Nc2nccc(-n3cc(CN(C)C)c(-c4cc(C)ccc4C)n3)n2)c(OC)cc1N1CCOCC1
output: > 7.70

input: // same read-out, input: C=CC(=O)Nc1cc(Nc2nccc(-n3cc(CN4C[C@H](O)[C@H](OC)C4)c(C4CC4)n3)n2)c(OC)cc1N1CCOCC1
output: > 7.70

input: Now consider C=CC(=O)Nc1cc(Nc2nccc(-n3cc(CN4CCC4)c(C4CC4)n3)n2)c(OC)cc1N(C)CCOC .
output: > 7.70

input: Similarly, C=CC(=O)Nc1cc(Nc2ncc(C)c(-n3cc(CN4CCC4)cn3)n2)c(OC)cc1N(C)CCN(C)C ?
output: > 7.70

input: Now give it for C=CC(=O)Nc1cc(Nc2ncc(C)c(-n3cc(CN4CCC4)c(C4CC4)n3)n2)c(OC)cc1N1CCOCC1 too.
output: > 7.70

input: Also need C=CC(=O)Nc1cc(Nc2nccc(-n3cc(CN(C)CC)c(C4CC4)n3)n2)c(OC)cc1N1CCOCC1 , thanks.
output: > 7.70

input: Lookup C=CC(=O)Nc1cc(Nc2nccc(-n3cc(CN4CC(O)C4)c(C)n3)n2)c(OC)cc1N1CCOCC1
output: > 7.70

input: Also, C=CC(=O)Nc1cc(Nc2ncc(C)c(-n3cc(CN(C)C)c(C4CC4)n3)n2)c(OC)cc1N1CCOCC1 please.
output: > 7.70

input: Repeat with C=CC(=O)Nc1cc(Nc2ncc(Cl)c(-n3cc(CN(C)C)cn3)n2)c(OC)cc1N1CCOCC1
output: > 7.70

input: Next up: C=CC(=O)Nc1cc(Nc2ncc(F)c(-n3cc(C)c(CN4CCC4)c3)n2)c(OC)cc1N(C)C
output: > 7.70

input: One more molecule: C=CC(=O)Nc1cc(Nc2ncc(C)c(-n3cc(CN4C[C@H](O)[C@H](OC)C4)cn3)n2)c(OC)cc1N1CCOCC1
output: > 7.70

input: Please do the same for C=CC(=O)Nc1cc(Nc2nccc(-n3cc(CN4CCC4)c(C)n3)n2)c(OC)cc1N1CCC(F)(F)CC1 as well.
output: > 7.70

input: How about this molecule: C=CC(=O)Nc1cc(Nc2nccc(-n3cc(CN(C)C)c(C4CC4)n3)n2)c(OC)cc1N(C)C1COC1
output: > 7.70

input: Next up: C=CC(=O)Nc1cc(Nc2nccc(-n3cc(CN(C)C)c(C)n3)n2)c(OC)cc1N1CCN(C)CC1
output: > 7.70

input: Similarly, C=CC(=O)Nc1cc(Nc2ncc(C)c(-n3cc(CN4CCC4)c(C)n3)n2)c(OC)cc1N1CCOCC1 ?
output: > 7.70

input: Thanks! And C=CC(=O)Nc1cc(Nc2ncc(Cl)c(-n3cc(CN4C[C@H](O)[C@H](OC)C4)c(C)n3)n2)c(OC)cc1N1CCOCC1 ?
output: > 7.70

input: Item: C=CC(=O)Nc1cc(Nc2ncc(C)c(-n3cc(CN4CC(O)C4)cn3)n2)c(OC)cc1N1CCOCC1
output: > 7.70
